Assay: Cytotoxicity against mouse RAW264.7 cells assessed as cell viability at 25 uM after 18 hrs by CCK-8 assay
Assay type: cell-based
Conditions: read-out: Activity
Let's look at some compounds and their measured viability at 18 h, 25 µM.
Number in %, nothing else.

Some compounds with recorded viability at 18 h, 25 µM:
O=C(OCCI)[C@H]1[C@H](c2ccc(O)cc2)[C@H](C(=O)OCCI)[C@H]1c1ccc(O)cc1; 98
O=C(OCCC1CCCCC1)[C@H]1[C@H](c2ccc(O)cc2)[C@H](C(=O)OCCC2CCCCC2)[C@H]1c1ccc(O)cc1; 100

### Prompt Look at this compound and give its reported viability at 18 h, 25 µM. `COCCOCCOC(=O)[C@H]1[C@H](c2ccc(O)cc2)[C@H](C(=O)OCCOCCOC)[C@H]1c1ccc(O)cc1`
### Response 100

### Prompt Look at this compound and give its reported viability at 18 h, 25 µM. C=C(C)C1CC=C(COC(=O)[C@H]2[C@H](c3ccc(O)cc3)[C@H](C(=O)OCC3=CCC(C(=C)C)CC3)[C@H]2c2ccc(O)cc2)CC1 (stereo partly drawn)
### Response 78

### Prompt Look at this compound and give its reported viability at 18 h, 25 µM. `O=C(O)[C@H]1[C@H](c2ccc(O)cc2)[C@H](C(=O)O)[C@H]1c1ccc(O)cc1`
### Response 100

### Prompt Look at this compound and give its reported viability at 18 h, 25 µM. `CCCCOCCOC(=O)[C@H]1[C@H](c2ccc(O)cc2)[C@H](C(=O)OCCOCCCC)[C@H]1c1ccc(O)cc1`
### Response 95

### Prompt Look at this compound and give its reported viability at 18 h, 25 µM. `C#CCCOC(=O)[C@H]1[C@H](c2ccc(O)cc2)[C@H](C(=O)OCCC#C)[C@H]1c1ccc(O)cc1`
### Response 100

### Prompt Look at this compound and give its reported viability at 18 h, 25 µM. CC(C)(C)C1CCC(OC(=O)[C@H]2[C@H](c3ccc(O)cc3)[C@H](C(=O)OC3CCC(C(C)(C)C)CC3)[C@H]2c2ccc(O)cc2)CC1 (stereo partly drawn)
### Response 100

### Prompt Look at this compound and give its reported viability at 18 h, 25 µM. `O=C(OC1CCOCC1)[C@H]1[C@H](c2ccc(O)cc2)[C@H](C(=O)OC2CCOCC2)[C@H]1c1ccc(O)cc1`
### Response 100

### Prompt Look at this compound and give its reported viability at 18 h, 25 µM. `O=C(OCC(F)(F)C(F)F)[C@H]1[C@H](c2ccc(O)cc2)[C@H](C(=O)OCC(F)(F)C(F)F)[C@H]1c1ccc(O)cc1`
### Response 100

### Prompt Look at this compound and give its reported viability at 18 h, 25 µM. `O=C(OC1CCCCCC1)[C@H]1[C@H](c2ccc(O)cc2)[C@H](C(=O)OC2CCCCCC2)[C@H]1c1ccc(O)cc1`
### Response 100

### Prompt Look at this compound and give its reported viability at 18 h, 25 µM. `CC(C)=CCC/C(C)=C\COC(=O)[C@H]1[C@H](c2ccc(O)cc2)[C@H](C(=O)OC/C=C(/C)CCC=C(C)C)[C@H]1c1ccc(O)cc1`
### Response 56

### Prompt Look at this compound and give its reported viability at 18 h, 25 µM. `CCC[C@H]1CC[C@H]([C@H]2CC[C@@H](OC(=O)[C@H]3[C@H](c4ccc(O)cc4)[C@H](C(=O)O[C@H]4CC[C@@H]([C@H]5CC[C@H](CCC)CC5)CC4)[C@H]3c3ccc(O)cc3)CC2)CC1`
### Response 100

====

Test system: RAW264.7
Experiment: Inhibition of LPS-induced NO production in mouse RAW264.7 cells at 25 uM pretreated for 20 mins before LPS challenge measured after 18 hrs post LPS challenge by spectrophotometry
Type: functional
Let's look at some compounds and their measured inhibition at 25 µM.
Number in %, nothing else.

Some compounds with recorded inhibition at 25 µM:
O=C(OCC12CC3CC(CC(C3)C1)C2)[C@H]1[C@H](c2ccc(O)cc2)[C@H](C(=O)OCC23CC4CC(CC(C4)C2)C3)[C@H]1c1ccc(O)cc1; 27.8
CC(C)=CCC/C(C)=C\COC(=O)[C@H]1[C@H](c2ccc(O)cc2)[C@H](C(=O)OC/C=C(/C)CCC=C(C)C)[C@H]1c1ccc(O)cc1; 42.6
CCOCCOCCOCCOC(=O)[C@H]1[C@H](c2ccc(O)cc2)[C@H](C(=O)OCCOCCOCCOCC)[C@H]1c1ccc(O)cc1; 15.7
CCC/C=C/COC(=O)[C@H]1[C@H](c2ccc(O)cc2)[C@H](C(=O)OC/C=C/CCC)[C@H]1c1ccc(O)cc1; 72.3
O=C(OCC1CC1)[C@H]1[C@H](c2ccc(O)cc2)[C@H](C(=O)OCC2CC2)[C@H]1c1ccc(O)cc1; 33.9

Next:
### Prompt Look at this compound and give its reported inhibition at 25 µM. `O=C(OCC(F)(F)F)[C@H]1[C@H](c2ccc(O)cc2)[C@H](C(=O)OCC(F)(F)F)[C@H]1c1ccc(O)cc1`
### Response 65.3

====

Test system: RAW264.7
Test: Inhibition of LPS-induced NO production in mouse RAW264.7 cells at 25 uM pretreated for 20 mins before LPS challenge measured after 18 hrs post LPS challenge by spectrophotometry
Format: functional
Reported Property: inhibition at 25 µM (%)
Number in %, nothing else.

Some molecules with recorded inhibition at 25 µM:
O=C(OCCC1CCCCC1)[C@H]1[C@H](c2ccc(O)cc2)[C@H](C(=O)OCCC2CCCCC2)[C@H]1c1ccc(O)cc1; 19.1
O=C(O)/C=C/c1ccc(O)cc1 [COUMARIC ACID]; 0
CC(C)OCCOC(=O)[C@H]1[C@H](c2ccc(O)cc2)[C@H](C(=O)OCCOC(C)C)[C@H]1c1ccc(O)cc1; 22
CCC[C@H]1CC[C@H]([C@H]2CC[C@H](OC(=O)[C@H]3[C@H](c4ccc(O)cc4)[C@H](C(=O)O[C@H]4CC[C@H]([C@H]5CC[C@H](CCC)CC5)CC4)[C@H]3c3ccc(O)cc3)CC2)CC1; 0
O=C(OC1CCCCCC1)[C@H]1[C@H](c2ccc(O)cc2)[C@H](C(=O)OC2CCCCCC2)[C@H]1c1ccc(O)cc1; 16
COCCOCCOCCOC(=O)[C@H]1[C@H](c2ccc(O)cc2)[C@H](C(=O)OCCOCCOCCOC)[C@H]1c1ccc(O)cc1; 11.9

### Prompt Look at this molecule and give its reported inhibition at 25 µM. C=C(C)C1CC=C(COC(=O)[C@H]2[C@H](c3ccc(O)cc3)[C@H](C(=O)OCC3=CCC(C(=C)C)CC3)[C@H]2c2ccc(O)cc2)CC1 (stereo partly drawn)
### Response 36.1

### Prompt Look at this molecule and give its reported inhibition at 25 µM. `O=C(OCC(F)(F)C(F)F)[C@H]1[C@H](c2ccc(O)cc2)[C@H](C(=O)OCC(F)(F)C(F)F)[C@H]1c1ccc(O)cc1`
### Response 15.7

### Prompt Look at this molecule and give its reported inhibition at 25 µM. `O=C(O)[C@H]1[C@H](c2ccc(O)cc2)[C@H](C(=O)O)[C@H]1c1ccc(O)cc1`
### Response 5.5

### Prompt Look at this molecule and give its reported inhibition at 25 µM. `COCCOCCOC(=O)[C@H]1[C@H](c2ccc(O)cc2)[C@H](C(=O)OCCOCCOC)[C@H]1c1ccc(O)cc1`
### Response 21.9

### Prompt Look at this molecule and give its reported inhibition at 25 µM. `CCCOCCOC(=O)[C@H]1[C@H](c2ccc(O)cc2)[C@H](C(=O)OCCOCCC)[C@H]1c1ccc(O)cc1`
### Response 23.6

====

System: RAW264.7
Experiment: Inhibition of LPS-induced NO production in mouse RAW264.7 cells pretreated for 20 mins before LPS challenge measured after 18 hrs post LPS challenge by spectrophotometry
Assay type: functional, cell-based
Let's look at some compounds and their measured IC50.
Number in µM, nothing else.

Some compounds with recorded IC50:
CCCCOCCOC(=O)[C@H]1[C@H](c2ccc(O)cc2)[C@H](C(=O)OCCOCCCC)[C@H]1c1ccc(O)cc1; 32.6
CC(C)[C@@H]1CC[C@@H](C)C[C@H]1OC(=O)[C@H]1[C@H](c2ccc(O)cc2)[C@H](C(=O)O[C@@H]2C[C@H](C)CC[C@H]2C(C)C)[C@H]1c1ccc(O)cc1; 17.5
O=C(OC(C(F)(F)F)C(F)(F)F)[C@H]1[C@H](c2ccc(O)cc2)[C@H](C(=O)OC(C(F)(F)F)C(F)(F)F)[C@H]1c1ccc(O)cc1; 22.6
O=C(OC1CCCC1)[C@H]1[C@H](c2ccc(O)cc2)[C@H](C(=O)OC2CCCC2)[C@H]1c1ccc(O)cc1; 21.1
O=C(OC1CCCCC1)[C@H]1[C@H](c2ccc(O)cc2)[C@H](C(=O)OC2CCCCC2)[C@H]1c1ccc(O)cc1; 16.4

### Prompt Look at this compound and give its reported IC50. `O=C(OCC(F)(F)F)[C@H]1[C@H](c2ccc(O)cc2)[C@H](C(=O)OCC(F)(F)F)[C@H]1c1ccc(O)cc1`
### Response 20.8
